The values you see were collected from patent US6376553B1.

Biological target: [3H]Noradenaline reuptake (Rattus norvegicus)
Sequence (Q9WTR4 1-597): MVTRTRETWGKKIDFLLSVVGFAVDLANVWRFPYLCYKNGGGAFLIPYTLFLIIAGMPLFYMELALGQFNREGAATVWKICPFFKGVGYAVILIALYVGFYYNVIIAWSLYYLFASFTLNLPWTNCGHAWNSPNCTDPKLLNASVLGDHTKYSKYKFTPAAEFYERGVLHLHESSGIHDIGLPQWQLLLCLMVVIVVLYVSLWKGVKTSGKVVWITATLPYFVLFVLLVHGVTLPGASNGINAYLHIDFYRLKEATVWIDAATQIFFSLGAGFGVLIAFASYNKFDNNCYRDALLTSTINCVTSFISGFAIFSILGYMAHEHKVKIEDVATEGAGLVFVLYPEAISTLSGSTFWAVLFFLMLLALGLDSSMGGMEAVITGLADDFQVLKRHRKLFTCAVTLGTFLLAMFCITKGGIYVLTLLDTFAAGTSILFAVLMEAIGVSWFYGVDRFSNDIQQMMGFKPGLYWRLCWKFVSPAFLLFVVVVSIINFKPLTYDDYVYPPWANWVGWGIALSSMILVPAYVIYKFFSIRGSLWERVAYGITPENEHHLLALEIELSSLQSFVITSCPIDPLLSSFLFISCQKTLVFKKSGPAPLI
Assay: biochemical
ENDPOINT: Ki (nM)
The response must be a number in nM with no trailing unit.

What the record says about CC(NC(C)(C)C)C(=O)c1cccc(Cl)c1 (stereo not shown) : Ki is 2590
